- System: OVCAR-4
- measurement description: NCI tumour cell line growth inhibition, 48 h
Activity calls are given as the source filed them. Rule as the data show it: active = GI50 up to about 1.1 µM and inactive = higher. Bridge positions count the residues as written; N and C are the ends. Square brackets hold non-standard residues; d marks the D form. Peptide text beside a SMILES is read from it. * marks the point of attachment. Cbz = O=C(OCc1ccccc1)*; Dab = NCC[CH](N)C(=O)O; Bn = c1ccc(C*)cc1
attribute measured: GI50

• CSc1nc(-c2ccc(C)cc2)c(C#N)c(=O)[nH]1 = > 100 µM (inactive)
• CC(=O)NNc1nc(C)c(C(=O)NNC(=O)C(=O)Nc2ccc(Cl)cc2)s1 = 47 µM (inactive)
• C=CCNC(=O)NNC(O)(C(=O)OCC)C(F)(F)F (stereo unspecified) = > 100 µM (inactive)
• Cc1ccc(S(=O)(=O)N2CCN(S(=O)(=O)c3ccc(C)cc3)CCN(S(=O)(=O)c3ccc(C)cc3)Cc3cc(C#N)c(C#N)cc3CN(S(=O)(=O)c3ccc(C)cc3)CC2)cc1 = > 100 µM (inactive)
• CNC(C)Cc1ccc(O)cc1 (stereo unspecified) = > 100 µM (inactive)
• CO/C=C(/C(=O)OC)c1ccccc1[C@H]1C[C@@H]1c1ccc(OC)cc1 = 8.05 µM (inactive)
• COc1cc(/C=N/N=C(\N)NO)cc(OC)c1OC = 40.8 µM (inactive)
• S=c1nc2c(c[nH]1)C1c3ccccc3C2c2ccccc21 = 39.2 µM (inactive)
• O=C1OC2(C(F)(F)F)Oc3ccccc3CN2C12CCCCC2 (stereo unspecified) = 31.8 µM (inactive)
• Cc1cc(NS(=O)(=O)c2ccc(NO)cc2)no1 = 67.3 µM (inactive)
• C[n+]1c(/C=C/c2ccc(O)c3ncccc23)[se]c2ccccc21 = 4.2 µM (inactive)
• COc1cc2c(c(O)c1OC)-c1c(cc(OC)c(OC)c1OC)CC(C)C(C)C2 (stereo unspecified) = 30.3 µM (inactive)
• OC1CN2CCS[C@H]2C(O)C1O (stereo partly specified) = > 100 µM (inactive)
• O=[N+]([O-])C(/C=C(\Cl)[N+](=O)[O-])=C(N1CCOCC1)N1CCOCC1 = 25.9 µM (inactive)
• CC(C)CC1NC(=O)C(Cc2ccccc2)NC(=O)C(Cc2ccccc2)NC(=O)C(NC(=O)C(Cc2ccc(OCc3ccccc3)cc2)NC(=O)OCc2ccccc2)CCNC1=O (stereo unspecified) (Cbz-Y(Bn)[Dab]FFL; lactam 2-C; configuration not given here) = 47.2 µM (inactive)
• C/C(=N\N(C)C)C(CN1CCCCC1)C(c1ccccc1)c1c(O)c2ccccc2oc1=O (stereo unspecified) = > 100 µM (inactive)
• CSc1n[n+](C)cc(N)c1N = > 100 µM (inactive)
• CC1NOC(=O)C1/N=N/c1ccccc1Cl (stereo unspecified) = 39.9 µM (inactive)
• COCOc1c(C(O[Si](C)(C)C(C)(C)C)c2cnc(Sc3ccccc3)n2C)ccc(OC)c1OC (stereo unspecified) = 3 µM (inactive)
• OCC1OC(n2nc(-c3ccccc3)nc2-c2cnccn2)C(O)C(O)C1O (stereo unspecified) = > 100 µM (inactive)
• CC1CN(C(=O)CN2CCC(CCCCN(C)C)CC2)c2ccccc2NC1=O (stereo unspecified) = > 100 µM (inactive)
